- Method Description: RP, Agilent ZORBAX Eclipse XDB-C8, 150 × 4.6 mm, 3.5 µm, 25 °C, 0.6 mL/min, estimated dead time 2.6 min; A: water + 0.1% formic acid; B: acetonitrile + 0.1% formic acid; gradient (min/%B) 0/10 5/10 30/100
- Protocol Conditions: stereoisomer not certain
Observation Type: LC retention time (min)
Quick reminder: number only, in min, skip the unit.

Prompt: Query (compound): Nc1ccc(S(=O)(=O)Nc2ncccn2)cc1 ; field requested: LC retention time
Response: 9.9

Prompt: Query (compound): COc1ccc2c3c1OC1C(O)C=CC4C(C2)N(C)CCC341 (centres undefined) ; field requested: LC retention time
Response: 7

Prompt: Query (compound): COCCc1ccc(OCC(O)CNC(C)C)cc1 (centres undefined) ; field requested: LC retention time
Response: 12.1

Prompt: Query (compound): COc1cc(Cc2cnc(N)nc2N)cc(OC)c1OC ; field requested: LC retention time
Response: 10.4

Prompt: Query (compound): NC(=O)N1c2ccccc2C(O)C(O)c2ccccc21 (centres undefined) ; field requested: LC retention time
Response: 12.9

Prompt: Query (compound): NCC1(CC(=O)O)CCCCC1 ; field requested: LC retention time
Response: 6.5

Prompt: Query (compound): O=C1NC(=O)C(c2ccccc2)(c2ccccc2)N1 ; field requested: LC retention time
Response: 17.1

Prompt: Query (compound): CC(C)(C)NCC(O)c1ccc(O)c(CO)c1 (centres undefined) ; field requested: LC retention time
Response: 4

Prompt: Query (compound): CN(C)CCOC(c1ccccc1)c1ccccc1 ; field requested: LC retention time
Response: 15.1

Prompt: Query (compound): COc1ccc2c(c1)C13CCCCC1C(C2)N(C)CC3 (centres undefined) ; field requested: LC retention time
Response: 14.6

Prompt: Query (compound): COc1ccc2c3c1OC1C(=O)CCC4C(C2)N(C)CCC314 (centres undefined) ; field requested: LC retention time
Response: 10.1

Prompt: Query (compound): CC(C)NCC(O)COc1ccc(CC(N)=O)cc1 (centres undefined) ; field requested: LC retention time
Response: 4.2

Prompt: Query (compound): COc1ccc(C(CN(C)C)C2(O)CCCCC2)cc1 (centres undefined) ; field requested: LC retention time
Response: 13.5

Prompt: Query (compound): CC1(C)SC2C(NC(=O)C(N)c3ccccc3)C(=O)N2C1C(=O)O (centres undefined) ; field requested: LC retention time
Response: 10.4

Prompt: Query (compound): CCC1OC(=O)C(C)C(OC2CC(C)(OC)C(O)C(C)O2)C(C)C(OC2OC(C)CC(N(C)C)C2O)C(C)(O)CC(C)C(=O)C(C)C(O)C1(C)O (centres undefined) ; field requested: LC retention time
Response: 14.6

Prompt: Query (compound): CC1(C)SC2C(NC(=O)COc3ccccc3)C(=O)N2C1C(=O)O (centres undefined) ; field requested: LC retention time
Response: 17.9

Prompt: Query (compound): CC(C)NCC(O)COc1ccc(CC(=O)O)cc1 (centres undefined) ; field requested: LC retention time
Response: 9.4

Prompt: Query (compound): CCC1(c2ccccc2)C(=O)NCNC1=O ; field requested: LC retention time
Response: 12.7

Prompt: Query (compound): CNC(=C[N+](=O)[O-])NCCSCc1ccc(CN(C)C)o1 ; field requested: LC retention time
Response: 4.6

Prompt: Query (compound): Cn1c(=O)c2c(ncn2C)n(C)c1=O ; field requested: LC retention time
Response: 9.8

Prompt: Query (compound): CN(C)CC(c1ccc(O)cc1)C1(O)CCCCC1 (centres undefined) ; field requested: LC retention time
Response: 11.3

Prompt: Query (compound): CC(=O)Nc1ccc(O)cc1 ; field requested: LC retention time
Response: 6.5

Prompt: Query (compound): COc1ccccc1OCC(O)CO (centres undefined) ; field requested: LC retention time
Response: 12.7

Prompt: Query (compound): CCC(C)(C)C(=O)OC1CC(C)C=C2C=CC(C)C(CCC3CC(O)CC(=O)O3)C21 (centres undefined) ; field requested: LC retention time
Response: 26.9

From: the RepoRT retention time repository (doi:10.1016/j.chroma.2012.03.059)
